Readings of concentration for the listed molecules
Assay: Drug concentration in plasma of naive C57BL/6J mouse at 10 mg/kg, ip measured after 20 to 30 mins
Assay type: ADME, organism-based
Conditions: in vivo, time 20-30 min
Quick note: give the figure in µM, leave out the unit.

Examples from the recorded data:
Cc1ccc(-c2cnn(CC3CCCC3)c2)c(-c2ccc(F)c(F)c2)n1 :: 0.915
Cc1ccc(-c2cnn(CC3CCCC3)c2)c(-c2ccc3c(c2)C(=O)N(C)C3)n1 :: 2.44

// query May I ask what concentration has been recorded for Cc1ccc(-c2cnn(CC3CCCC3)c2)c(-c2ccc(N)c([N+](=O)[O-])c2)n1 ?
// result 2.43

====

Experiment: Ratio of drug concentration in brain to plasma of naive C57BL/6J mouse at 10 mg/kg, ip
Format: ADME, organism-based
Conditions: read-out: BPR
PROPERTY: Kp
# output: bare number, no unit

Use these answered entries as a reference point.
Cc1ccc(-c2cnn(CC3CCCC3)c2)c(-c2ccc(F)c(F)c2)n1 :: 1.6
Cc1ccc(-c2cnn(CC3CCCC3)c2)c(-c2ccc3c(c2)C(=O)N(C)C3)n1 :: 0.1

// query Report Kp for Cc1ccc(-c2cnn(CC3CCCC3)c2)c(-c2ccc(N)c([N+](=O)[O-])c2)n1 please.
// result 0.3

====

Biological target: Muscarinic acetylcholine receptor M4 (Homo sapiens) (UniProt P08173)
Sequence (whole entry): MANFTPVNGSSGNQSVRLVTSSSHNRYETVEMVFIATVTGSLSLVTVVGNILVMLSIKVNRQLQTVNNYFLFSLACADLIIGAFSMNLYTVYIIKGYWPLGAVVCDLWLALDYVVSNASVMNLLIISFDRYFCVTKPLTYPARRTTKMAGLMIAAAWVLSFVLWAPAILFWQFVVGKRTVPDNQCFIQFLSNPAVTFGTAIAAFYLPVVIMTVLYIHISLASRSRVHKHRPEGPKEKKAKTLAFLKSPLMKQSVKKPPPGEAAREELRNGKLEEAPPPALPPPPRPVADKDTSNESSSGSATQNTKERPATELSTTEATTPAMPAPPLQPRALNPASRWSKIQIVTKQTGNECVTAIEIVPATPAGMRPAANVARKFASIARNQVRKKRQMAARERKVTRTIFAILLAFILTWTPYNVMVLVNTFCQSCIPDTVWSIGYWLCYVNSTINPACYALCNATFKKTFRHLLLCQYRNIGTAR
Assay: Displacement of 3[H]-NMS from human M4 mAChR expressed in Flp-In-CHO cells assessed as binding co-operativity (log alpha) incubated for 6 hrs in presence of ACh by microbeta2 plate reader assay
Type: cell-based
Details: filed as positive allosteric modulator
PROPERTY: log(activity)
Answer with a number only.

// known answers, use as guide
Cc1ccc(-c2cnn(CC3CCCC3)c2)c(-c2cccc(C(=O)N(C)C)c2)n1 :: 1.47
CN1Cc2ccc(-c3nccnc3-c3cnn(CC4CCCC4)c3)cc2C1=O :: 1.41
Cc1ccc(-c2cnn(CC3CC3)c2)c(-c2ccc3c(c2)C(=O)N(C)C3)n1 :: 1.95

// query Any idea what log(activity) was measured for Cc1ccc(-c2cnn(CC3CCCCC3)c2)c(-c2ccc3c(c2)C(=O)N(C)C3)n1 ?
// result 1.92

// query Data request, read-out log(activity), for Cc1ccc(-c2cnn(CC3CCCC3)c2)c(-c2ccc(F)c(F)c2)n1
// result 2.04
